From: patent US20230104936A1

Test system: TFEB
Experiment: TFEB nuclear translocation assay, HeLa wt cells
Type: cell-based
Conditions: Homo sapiens, HeLa, 2 h, 2 hrs compound treatment, Table 1 does not say HeLa wt or TRPML1 KO
Entries annotated with measured AC50

// solved cases for AC50 follow
Molecule | AC50
COc1ccc(S(=O)(=O)Nc2ccccc2N(C)c2ccc(F)cc2F)cc1 [Compound A-199] | ≥ 10000 nM
COCC1(C)CCN(c2ccccc2NS(=O)(=O)Cc2cccc3c2COC3)CC1 [Compound A-607] | 2010 to 8000 nM
CCC1(N2CCOCC2)CCN(c2ccccc2NS(=O)(=O)c2ccc(S(=O)(=O)N(C)C)cc2)CC1 [Compound A-451] | ≤ 2000 nM
COCS(=O)(=O)c1ccc(S(=O)(=O)Nc2ccccc2N2CCC(c3c(F)cccc3F)CC2)cc1 [Compound A-207] | ≤ 2000 nM

Note to self: AC50 recorded for CN(C)S(=O)(=O)c1ccc(S(=O)(=O)Nc2cccc(F)c2N2CCC3(CCN3)CC2)cc1 [Compound A-816] was ≥ 10000 nM

Note to self: AC50 recorded for COc1ccc(S(=O)(=O)Nc2ccccc2N2CCC(c3ccc(F)cc3F)CC2)nc1 [Compound A-118] was 2010 to 8000 nM

Note to self: AC50 recorded for O=S(=O)(Nc1cc(Cl)ccc1N1CCCC2(CCCO2)C1)c1ccc2c(c1)CCC2 (stereo not drawn) [Compound A-362] was ≤ 2000 nM

Note to self: AC50 recorded for CN(C)S(=O)(=O)c1ccc(S(=O)(=O)Nc2ccccc2N2CCC(O)(c3ccc(Cl)cc3F)CC2)cc1 [Compound A-115] was ≤ 2000 nM

Note to self: AC50 recorded for Cc1nn(S(=O)(=O)c2ccc(S(=O)(=O)N(C)C)cc2)cc1C1CCN(c2ccc(Cl)cc2F)CC1 [Compound A-38] was ≤ 2000 nM

----------
System: TFEB
Assay: TFEB nuclear translocation assay, HeLa wt cells
Assay type: cell-based
Details: Homo sapiens, HeLa, 2 h, 2 hrs compound treatment, Table 1 does not say HeLa wt or TRPML1 KO
Entries annotated with measured AC50

// solved cases for AC50 follow
Molecule | Attribute Measured | Observed
Cc1ccc(S(=O)(=O)Cc2ccccc2N2CCC(c3ccc(Cl)cc3F)CC2)cc1 | AC50 | ≤ 2000 nM
Cc1cccc(CS(=O)(=O)Nc2ccccc2N2CCC3(CC2)COC(C)(C)C3)c1 | AC50 | ≤ 2000 nM
CC1(C)CC2(CCN(c3ccccc3NS(=O)(=O)c3ccc(OC(F)F)c(F)c3)CC2)CO1 | AC50 | 2010 to 8000 nM
COCC1(C)CCN(c2ccccc2NS(=O)(=O)Cc2ccc3c(c2)COC3)CC1 | AC50 | 2010 to 8000 nM
O=S(=O)(Nc1cccc(N2CCC(c3ccc(Cl)cc3F)CC2)c1)c1ccc(F)cc1 | AC50 | ≥ 10000 nM

Note to self: AC50 recorded for CC(c1cccc(F)c1N1CCC(CN2CCC(F)(F)CC2)CC1)S(=O)(=O)c1ccc(S(=O)(=O)N(C)C)cc1 (centres unmarked) was ≤ 2000 nM

Note to self: AC50 recorded for N#Cc1cccc(S(=O)(=O)Nc2ccccc2N2CCN(c3ccc(Cl)cc3F)CC2)c1 was 2010 to 8000 nM

Note to self: AC50 recorded for CN(C)S(=O)(=O)c1ccc(S(=O)(=O)Nc2ccccc2N2CCC(C3(O)CC3)CC2)cc1 was 2010 to 8000 nM

----------
Test system: TFEB
Test: TFEB nuclear translocation assay, HeLa wt cells
Format: cell-based
Conditions: Homo sapiens, HeLa, 2 h, 2 hrs compound treatment, Table 1 does not say HeLa wt or TRPML1 KO
Attribute Measured: AC50

// solved cases for AC50 follow
Compound | AC50
CN(C)S(=O)(=O)c1ccc(S(=O)(=O)N(C)c2cccc(Cl)c2N2CCOCC2)cc1 | ≥ 10 µM
Cc1noc(NS(=O)(=O)c2ccc(S(=O)(=O)N(C)C)cc2)c1C1CCN(c2ccc(Cl)cc2F)CC1 | ≥ 10 µM
O=S(=O)(Nc1cc(Cl)ccc1N1CCOCC1)c1ccc(S(=O)(=O)C(F)F)cc1 | ≥ 10 µM
CC1(C)CC2(CCN(c3ccccc3NS(=O)(=O)Cc3ccc4c(c3)COCC4)CC2)CO1 | 2.01 to 8 µM
CN(C)S(=O)(=O)c1ccc(S(=O)(=O)Nc2ccc3ccnn3c2N2CCCCC2)cc1 | 2.01 to 8 µM
CC(c1cccc(F)c1N1CCC(CN2C[C@@H](C)O[C@@H](C)C2)CC1)S(=O)(=O)c1ccc(S(=O)(=O)N(C)C)cc1 (stereo partly shown) | ≤ 2 µM

Note to self: AC50 recorded for COCC1(C)CCN(c2ccccc2NS(=O)(=O)c2ccc3c(c2)CCC(C(F)F)O3)CC1 (stereo not shown) was 2.01 to 8 µM

----------
Tested on: TFEB
Assay: TFEB nuclear translocation assay, HeLa wt cells
Format: cell-based
Settings: Homo sapiens, HeLa, 2 h, 2 hrs compound treatment, Table 1 does not say HeLa wt or TRPML1 KO
Attribute Measured: AC50

// solved cases for AC50 follow
Molecule | AC50
CC(C)(C)C(=O)N1CCN(c2ccccc2NS(=O)(=O)c2ccc(OC(F)(F)F)cc2)CC1 | 8.01 to 9.99 µM
CN(C)S(=O)(=O)c1ccc(S(=O)(=O)Nc2ccccc2C2=CCN(c3ccc(Cl)cc3F)CC2)cc1 | ≤ 2 µM
Cc1nc(C)c(S(=O)(=O)Nc2ccccc2N2CCN(c3ccc(Cl)cc3F)CC2)s1 | ≤ 2 µM
Cn1ccc(S(=O)(=O)Nc2ccccc2N2CCN(c3ccc(Cl)cc3F)CC2)n1 | 2.01 to 8 µM

Note to self: AC50 recorded for COCCCC1CCN(c2ccccc2NS(=O)(=O)c2ccc(S(=O)(=O)N(C)C)cc2)CC1 was ≤ 2 µM

Note to self: AC50 recorded for CN1C(=O)C2(CCN(c3ccccc3NS(=O)(=O)c3ccc(S(=O)(=O)N(C)C)cc3)CC2)c2cccnc21 was 2.01 to 8 µM

Note to self: AC50 recorded for CC(c1cccc(F)c1N1CCC(CN2C3CCC2COC3)CC1)S(=O)(=O)c1ccc2c(c1)CCC2 (stereo not shown) was 2.01 to 8 µM

----------
Test system: TFEB
Experiment: TFEB nuclear translocation assay, HeLa wt cells
Type: cell-based
Conditions: Homo sapiens, HeLa, 2 h, 2 hrs compound treatment, Table 1 does not say HeLa wt or TRPML1 KO
Attribute Measured: AC50

// solved cases for AC50 follow
Molecule | AC50
Cc1cc(NS(=O)(=O)c2ccc(S(=O)(=O)N(C)C)cc2)n(C2CCCCC2)c(=O)c1 | ≥ 10 µM
CN(C)C(=O)N1CCN(c2ccccc2NS(=O)(=O)c2ccc(S(=O)(=O)N(C)C)cc2)CC1 | ≥ 10 µM
CC(c1cccc(F)c1N1CCC(CN2C3CCC2COC3)CC1)S(=O)(=O)c1ccc(S(=O)(=O)N(C)C)cc1 (stereo not shown) | ≤ 2 µM
CN(C)S(=O)(=O)c1ccc(S(=O)(=O)Nc2ccccc2N2CCN(c3ncccc3F)CC2)cc1 | 2.01 to 8 µM
O=S(=O)(Nc1ccccc1N1CCC(c2ccc(Cl)cc2F)CC1)c1ccc(C2(C(F)(F)F)N=N2)cc1 | 2.01 to 8 µM
CN(C)S(=O)(=O)c1ccc(S(=O)(=O)Nc2ccccc2N2CCC3(CC2)CN(C(=O)OC2CCOC2)c2cc(F)ccc23)cc1 (stereo not shown) | ≤ 2 µM

# input for lookup
Note to self: AC50 recorded for CCOC(=O)c1ccc(S(=O)(=O)Nc2ccccc2N2CCC(c3ccc(Cl)cc3F)CC2)cc1 was ≥ 10 µM

----------
Test system: TFEB
Test: TFEB nuclear translocation assay, HeLa wt cells
Type: cell-based
Conditions: Homo sapiens, HeLa, 2 h, 2 hrs compound treatment, Table 1 does not say HeLa wt or TRPML1 KO
Attribute Measured: AC50

Molecule | Attribute Measured | Observed
Cc1nn(C)c(C2CCN(c3ccc(Cl)cc3F)CC2)c1NS(=O)(=O)c1ccc(S(=O)(=O)N(C)C)cc1 | AC50 | ≥ 10000 nM
O=S(=O)(CC1CCC2(CCCC2)O1)Nc1cccc(Cl)c1N1CCOCC1 (stereo not shown) | AC50 | 8010 to 9990 nM
CS(=O)(=O)c1ccc(S(=O)(=O)Nc2ccccc2N2CCC(c3ccc(Cl)cc3F)CC2)cc1 | AC50 | ≤ 2000 nM
CN(C)S(=O)(=O)c1ccc(S(=O)(=O)Nc2ccccc2N2CCC3(CC2)COc2cc(F)ccc23)cc1 | AC50 | ≤ 2000 nM
CN(C)S(=O)(=O)c1ccc(S(=O)(=O)Nc2ccccc2N2CCC(c3ccc(Cl)cc3F)CC2)cc1 | AC50 | ≤ 2000 nM
CN(C)S(=O)(=O)c1ccc(S(=O)(=O)Nc2ccccc2N2CCN(C(=O)C3CC3(C)C)CC2)cc1 (stereo not shown) | AC50 | 2010 to 8000 nM

# input for lookup
Note to self: AC50 recorded for CN1CC2(CCN(c3ccccc3NS(=O)(=O)c3ccc(S(=O)(=O)N(C)C)cc3)CC2)c2ncc(Cl)cc21 was ≤ 2000 nM
